assay: activators reversing PD-1 mediated T-cell inhibition, primary screen, luminescence, primary human CD4 T cells, PD-L1 beads (AID 2316); details: CellTiter-Glo 96 h, active compounds read high;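 note: 0% = median vehicle wells and 100% = positive control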
In all, about 29,000 compounds went through this assay and fewer than 10 were called active. The list is a sample of the results.
Readout type: activation (%)
Value expressed in %; do not type the unit.

Consider the following illustrative entries.
{"columns": ["Query smiles", "activation [%]"],
 "data": [
  ["COC(=O)c1scc(S(=O)(=O)C(C)(C)C)c1-n1cccc1", -0.136],
  ["Cc1ccc(S(=O)(=O)Nc2cccc3c2O[C@@H](CN(C)CC2CCCCC2)[C@H](C)CN([C@@H](C)CO)C3=O)cc1", 3.09],
  ["Cc1ccc(S(=O)(=O)Nc2ccc3c(c2)C(=O)N([C@H](C)CO)C[C@H](C)[C@H](CN(C)Cc2ccc(C(=O)Nc4ccccc4N)cc2)OCCCC[C@@H](C)O3)cc1", -0.831]
]}

Kindly consider the entry below.
Given item COC(=O)c1c(NC(=O)COc2ccc(C(C)C)c(C)c2)sc2c1CCC2 , the value recorded as its activation is 0.596

* * *

assay: activators reversing PD-1 mediated T-cell inhibition, primary screen, luminescence, primary human CD4 T cells, PD-L1 beads (AID 2316); details: CellTiter-Glo 96 h, active compounds read high;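 note: 0% = median vehicle wells and 100% = positive control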
Fewer than 10 of roughly 29,000 compounds were called active. Only a sample is shown.
Readout type: activation (%)
Value expressed in %; do not type the unit.

{"columns": ["Molecule", "Measured value"],
 "data": [
  ["O=C(Nc1ccccc1Cl)c1ccccc1S(=O)(=O)c1ccccc1[N+](=O)[O-]", 1.95],
  ["COc1ccc(NC(=O)Nc2ccc3c(c2)CC(=O)N([C@H](C)CO)C[C@H](C)[C@H](CN(C)Cc2ccncc2)O3)cc1", 0.119]
]}

Kindly consider the entry below.
Given item CCCC1CCC(c2ccc(OC(=O)c3ccco3)cc2)CC1 (configuration not stated) , the value recorded as its activation is -0.337

* * *

test: activators reversing PD-1 mediated T-cell inhibition, primary screen, luminescence, primary human CD4 T cells, PD-L1 beads (AID 2316); conditions: CellTiter-Glo 96 h, active compounds read high;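 note: 0% = median vehicle wells and 100% = positive control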
The whole screen tested about 29,000 compounds, of which fewer than 10 were called active. The list is a sample of the results.
Readout type: activation (%)
Value expressed in %; do not type the unit.

{"columns": ["Molecule", "activation / %"],
 "data": [
  ["CCCOC(=O)C1=C(C)N(CC)C(=O)NC1c1ccccc1Cl (stereo not drawn)", -0.396],
  ["Cc1ccc(C(=O)O)cc1S(=O)(=O)NCC1CCCO1 (stereo not drawn)", -0.751]
]}

Kindly consider the entry below.
Given item C[C@@H]1CN([C@H](C)CO)C(=O)c2cc(NC(=O)Cc3ccccc3)ccc2O[C@@H]1CN(C)CC1CCCCC1 , the value recorded as its activation is -0.76

* * *

test: activators reversing PD-1 mediated T-cell inhibition, primary screen, luminescence, primary human CD4 T cells, PD-L1 beads (AID 2316); settings: CellTiter-Glo 96 h, active compounds read high;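 note: 0% = median vehicle wells and 100% = positive control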
Among all 29,000 compounds or so, fewer than 10 were called active. A selection follows.
Below, each of the molecules is paired with its reported activation value.
Value expressed in %; do not type the unit.

Consider the following illustrative entries.
{"columns": ["Query smiles", "Measured value"],
 "data": [
  ["Cc1ccc(S(=O)(=O)Nc2ccc3c(c2)C(=O)N([C@H](C)CO)C[C@H](C)[C@@H](CN(C)C(=O)Nc2ccc4c(c2)OCO4)OCCCC[C@@H](C)O3)cc1", 0.503],
  ["C[C@@H]1CCCCO[C@@H](CN(C)S(=O)(=O)c2cccs2)[C@@H](C)CN([C@H](C)CO)C(=O)c2cc(NC(=O)Nc3ccc4c(c3)OCO4)ccc2O1", -0.659]
]}

Given item Cc1ccccc1NC(=O)CSc1nnc(-c2ccc([N+](=O)[O-])cc2)n1C , the value recorded as its activation is 0.454
